# protocol: Single oral dose (200 mg) pharmacokinetic study, plasma LC-MS/MS, noncompartmental analysis
# Type: in vivo, human
# assayContext: human, plasma, po, 200 mg, 97/63 after oral 97/78 200 mg single dose; Mean ± SEM, N = 16
measuredAttribute: Cmax (ng/mL)
Give just the number in ng/mL; leave the unit off.

The measured Cmax associated with C=C(c1ccc(OC(C)(C)CO)cc1)C1COC2(OO1)C1CC3CC(C1)CC2C3 (stereo not shown) reads 144

---

# protocol: Single oral dose (200 mg) pharmacokinetic study, plasma LC-MS/MS, noncompartmental analysis
# Type: in vivo, human
# assayContext: male, human, plasma, po, 200 mg, 97/63 after oral 97/78 200 mg single dose; Mean ± SEM, N = 16; read-out: MRT
measuredAttribute: MRT (h)
Response body: numeric value in h, unit text excluded.

Reported MRT of C=C(c1ccc(OC(C)(C)CO)cc1)C1COC2(OO1)C1CC3CC(C1)CC2C3 (stereo not shown) : 9.73

---

# protocol: Single oral dose (200 mg) pharmacokinetic study, plasma LC-MS/MS, noncompartmental analysis
# Assay type: in vivo, human
# assayContext: human, plasma, po, 200 mg, 97/63 after oral 97/78 200 mg single dose; Mean ± SEM, N = 16
# Procedure: For pharmacokinetic (PK) study, eligible participants were admitted and housed in the clinical pharmacology unit an evening prior to the PK study. A standard dinner was served and a fasting condition for at least 10 hrs prior to dosing and 4 hrs after dosing was ensured. […] The time of actual dose administration to the nearest minute was recorded. […] Data acquisition and quantitation were performed using analyst software version 1.4 (Applied Biosystems, MDS SCIEX Toronto, Canada). […]
measuredAttribute: Tmax (h)
Entry rule: numbers only, all in h.

# compound C=C(c1ccc(OC(C)(C)CO)cc1)C1COC2(OO1)C1CC3CC(C1)CC2C3 (stereo not shown) ; its Tmax = 2.28
